Reported inhibition by item:
# procedureDetails: blockers of RIG-like receptor reporter activation – cell-based, Sendai virus stimulus, luciferase, 10K MLSCN set, TLR/RLR signaling modifier project, primary screen (AID 602276);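 note: firefly luciferase from ISG56 promoter only with Renilla not read in this screen; 0% = Sendai virus plus DMSO and 100% = medium plus DMSO without virus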
# conditionSummary: HEK293 RL24 IRF3 luciferase reporter, at 10 µM, stronger effect = higher value
Please reply with the bare figure in % and do not write the unit itself.

Answered cases to consult:
CCCCN1C(=O)NC(=O)C2(Cc3c(nc4c(C)cccn4c3=O)N3CCc4ccccc4C32)C1=O (stereo not given)
14
Cc1cc(OCC(=O)O)c2c3c(c(=O)oc2c1)CCCC3
-0.949
O=C(Cn1ncc2c3ccccc3n(Cc3ccc(F)cc3)c2c1=O)N1CCC2(CC1)OCCO2
7.71
OCC12COC3c4ccccc4C(OC1)N32 (stereo not given)
5.14
Cc1cc(NC(=O)COC(=O)c2c(C)nn(Cc3ccccc3)c2Cl)no1
3.25
C[C@H]1CCCC(=O)CCCCCc2cc(O)cc(O)c2C(=O)O1
-0.827
CCOc1ccc(C2SCC(=O)Nc3c2c(=O)[nH]n3C2CCCCCC2)cc1 (stereo not given)
-12.2
[N-]=[N+]=CC(=O)OC[C@H](N)C(=O)O
16.7

query: For the compound C=CCn1c(O)c(C(C)=Nc2ccc(N(CC)CC)cc2)c(=O)[nH]c1=O , what inhibition is on record?
result: 21.7

query: Try this compound too: CN1CCC(N(C)c2ncnc3ccc(Br)cc23)CC1
result: 10.9

----------
# procedureDetails: reduction of polyQ htt aggregates in cells – imaging, exon1htt(103Q)mCFP cells, high-content imaging, primary screen (AID 483);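 note: compound exposure lasted 3 days before fixation; percent of the per-plate median nuclei count of sample wells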
# conditionSummary: exon1htt(103Q)mCFP cell line, aggregate imaging, at 2 µM; measured here: cell count, toxicity
experimentalEndpoint: nuclei count (%)
State just the number; it will be interpreted in %.

C[C@H]1CCC/C=C/C2C[C@H](O)CC2[C@H](O)/C=C/C(=O)O1 (stereo partly drawn)
0.6
O=C1CC(c2ccccc2)CC(O)=C1C=NCCN1CCN(C(=O)Cc2ccccc2)CC1 (stereo not drawn)
92.1
COC(=O)c1cncn1C(C)c1ccccc1 (stereo not drawn)
97.9
CNP1(NC)=NC(C(F)(F)F)=NC(C(F)(F)F)=N1
112
Cc1ccc(Cn2c(C)c3cnn(CC(=O)N4CCC5(CC4)OCCO5)c(=O)c3c2C)cc1
110

query: Tell me the measured nuclei count of COc1ccc(OC)c(N2C(=O)NC(=O)C(CCc3ccncc3)(CCc3ccncc3)C2=O)c1 , please.
result: 107

query: And then CC(=NCCCO)c1c(O)n(Cc2ccccc2)c(=O)[nH]c1=O , what is it?
result: 113

----------
# procedureDetails: blockers of RIG-like receptor reporter activation – cell-based, Sendai virus stimulus, luciferase, 10K MLSCN set, TLR/RLR signaling modifier project, primary screen (AID 602276);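 note: firefly luciferase from ISG56 promoter only with Renilla not read in this screen; 0% = Sendai virus plus DMSO and 100% = medium plus DMSO without virus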
# conditionSummary: HEK293 RL24 IRF3 luciferase reporter, at 10 µM
Activity calls are given as the source filed them.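 The calls were made as follows: active = inhibition at or above 50% at 10 µM; inactive = inhibition below 50%.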
Your reply should match one of these outcome classes. 1 for active, 0 for inactive

O=c1c2ccccc2[se]n1-c1ccccc1
0
C(#CCN1CCOCC1)COCC#Cc1ccccc1
0
CC1=C(C(=O)OC(C)C)[C@]2(C(=O)N(CC(N)=O)c3ccccc32)C(C#N)=C(N)O1
0
c1ccc(Cn2ccnc2)cc1
0
CC(C)[C@H]1C(=O)N2CCC[C@H]2[C@]2(O)O[C@](NC(=O)[C@@H]3C=C4c5cccc6[nH]cc(c56)C[C@H]4N(C)C3)(C(C)C)C(=O)N12
0

As a next step, examine the molecule that follows.
query: Can you look up the reported call for COc1ccc(OC)c(N2C(=O)NC(=O)C(CCc3ccncc3)(CCc3ccncc3)C2=O)c1 for me?
result: 0

----------
# testedTarget: Alpha-2C adrenergic receptor (Homo sapiens) (UniProt P18825)
# Sequence (P18825 whole entry, looked up): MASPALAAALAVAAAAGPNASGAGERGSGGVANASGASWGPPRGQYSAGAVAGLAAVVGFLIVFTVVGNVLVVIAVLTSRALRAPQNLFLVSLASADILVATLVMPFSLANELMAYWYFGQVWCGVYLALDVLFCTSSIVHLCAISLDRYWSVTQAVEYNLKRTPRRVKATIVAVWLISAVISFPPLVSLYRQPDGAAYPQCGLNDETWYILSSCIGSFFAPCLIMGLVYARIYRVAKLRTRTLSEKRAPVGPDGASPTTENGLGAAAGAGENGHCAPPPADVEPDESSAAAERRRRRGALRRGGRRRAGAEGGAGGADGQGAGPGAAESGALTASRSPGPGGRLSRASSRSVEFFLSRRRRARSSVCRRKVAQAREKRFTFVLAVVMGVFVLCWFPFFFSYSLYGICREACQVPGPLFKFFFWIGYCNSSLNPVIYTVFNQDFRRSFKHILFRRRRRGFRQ
# procedureDetails: compounds altering alpha2C-coupled GIRK flux – cell-based, HEK293 alpha2C/GIRK1/2, thallium flux, primary screen (AID 624);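 note: slope of fluorescence ratio to pre-addition baseline per second over 15 to 24 s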
# conditionSummary: thallium flux BTC fluorescence, at 10 µM, actives lie on both sides
In this section, each of the compounds is paired with its reported slope.
Would you mind answering with just the numeric figure?

Reference set (10 entries):
CCOc1ccc(C2SCC(=O)Nc3c2c(=O)[nH]n3C2CCCCCC2)cc1 (stereo not drawn)
0.00778
CCOP(=S)(OCC)c1ccc(N(C)C)cc1
0.00443
O=C(Cn1ncc2c3ccccc3n(Cc3ccc(F)cc3)c2c1=O)N1CCC2(CC1)OCCO2
0.00589
Nc1ccc(C2(c3ccc(N)cc3)CN3CCC2CC3)cc1
0.00562
O=C1NCCN2CCCC12 (stereo not drawn)
0.00514
CC(C)Cc1[nH]c(=O)c(C#N)c2c1CCC2
0.00495
[N-]=[N+]=CC(=O)OC[C@H](N)C(=O)O
0.00503
CCCCCCn1c(O)c(C=NC2CCN(Cc3ccccc3)CC2)c(=O)[nH]c1=O
0.0054
COc1ccc(-n2c(SC)nc3ccccc3c2=O)cc1
0.00471
CC(=O)OC1(c2ccc(C)cc2)CN2CCC1c1ccccc12 (stereo not drawn)
0.00515

query: For the record COc1cccc(-n2c(C)nc3ccccc3c2=O)c1 , what value of slope is listed for Alpha-2C adrenergic receptor (Homo sapiens) (UniProt P18825)?
result: 0.00545

query: Now the same for CCCc1nc2ccccc2c(=O)n1-c1ccccc1OC
result: 0.00541

query: Record: COc1cccc(-n2c(O)c(C=NCCN3CCOCC3)c(=O)[nH]c2=O)c1
result: 0.00613

query: Try CCOc1ccc(Cc2c(O)[nH]c(=O)[nH]c2=O)cc1 next.
result: 0.00464

query: Continue with Cc1ccc(C)c(NC2=NCCCS2)c1
result: 0.00513

query: Now consider COc1ccc(N2CCN(CCCN)CC2)cc1 .
result: 0.00595

query: Entry CNCC(O)c1ccc(O)cc1 (stereo not drawn) please
result: 0.00558

query: Follow-up entry: CCCC(=O)OCC[N+](C)(C)C
result: 0.00561

----------
# procedureDetails: inhibitors of TNFa-induced NFkB p65 translocation, primary screen, imaging, HUVEC, MLSMR starter and 10KST1 sets (AID 438);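 note: compound added about 3h40 before a 20 min TNFalpha stimulation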
# conditionSummary: HUVEC TNFa-induced p65 nuclear translocation; measured here: nuclei count (cytotoxicity indicator), at 2.08 µM
experimentalEndpoint: cell count
Answer using only a numeral; do not append any unit.

Example molecules with recorded cell count:
COCCOC(=O)C1=C(N)Oc2c(c(=O)oc3ccccc23)[C@@]12C(=O)Nc1ccccc12
600
CCCC12CN3CN(C1)CC(CCC)(C3)C2O (stereo not drawn)
527

Now consider a different molecule.
query: Suppose we examine the molecule COc1ccc(C(=O)CN2CCOCC2)cc1F ; what cell count value has been reported?
result: 662

----------
# z-score annotations
# procedureDetails: Primary imaging screen for DUSP6 inhibitors that restore phospho-Erk in transfected HeLa cells, chemical complementation (AID 609)
# conditionSummary: HeLa MKP-3 transfected, phospho-Erk imaging KS statistic; measured here: nuclear c-Myc green intensity z-score; at 10 µM
// response body must contain only the number

Use these answered entries as a reference point.
c1ccc(Cn2ccnc2)cc1
-0.35
CC(=O)[C@H]1CC[C@H]2[C@@H]3CC[C@H]4C[C@H](O)CC[C@]4(C)[C@H]3C(=O)C[C@]12C
-0.45
COC(=O)C(c1ccccc1)N1CCCCCC1 (stereo unspecified)
1.36
CCc1nc(N2CCNCC2)c(C#N)c2c1CSC(C)(C)C2
-0.257
COc1ccc(C(=O)CN2CCOCC2)cc1F
0.019
CNCC(O)c1ccc(O)cc1 (stereo unspecified)
-0.213

query: Name the reported z-score value associated with the molecule COCCOC(=O)C1=C(N)Oc2c(c(=O)oc3ccccc23)[C@@]12C(=O)Nc1ccccc12
result: 0.851

query: Try this molecule too: CCOc1ccccc1-n1c(O)c(C=Nc2ccc(N(CC)CC)cc2)c(=O)[nH]c1=O
result: -1.62

query: And for COc1ccc(Cn2c(O)c(C=NCCN3CCOCC3)c(=O)[nH]c2=O)cc1 ?
result: -0.606

query: Ok, now COc1ccc(C(=O)CC2C(=O)N(C)C(=O)N(C)C2=O)cc1
result: 0.621

query: Next: C=C1CC[C@@]2(O)[C@H]3Cc4ccc(O)c5c4[C@@]2(CCN3CC2CC2)[C@H]1O5
result: 1.29

----------
# procedureDetails: inhibitors of TNFa-induced NFkB p65 translocation, primary screen, imaging, HUVEC, MLSMR starter and 10KST1 sets (AID 438);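 note: compound added about 3h40 before a 20 min TNFalpha stimulation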
# conditionSummary: HUVEC TNFa-induced p65 nuclear translocation; measured here: nuclei count (cytotoxicity indicator), at 2.08 µM
Categorize each record by its cell count using band A: < 500; band B: ≥ 500 and < 600; band C: ≥ 600

Please review the entries below; each comes with its answer.
CN1CC=C2C(C#N)=C(N)C(C#N)(C#N)C(c3ccncc3)C2C1 (centres undefined)
band B
CC1(C)CC(=O)C=C(NCCN2CCN(C(=O)Cc3ccc(Cl)cc3)CC2)C1
band C
CCCCc1nc(N2CCNCC2)c(C#N)c2c1CSC(C)(C)C2
band B
Cc1ccnc(-n2c(-c3ccco3)nc3ccccc3c2=O)c1
band A
COc1ccc(C(=O)C(C)(C)NO)cc1
band C

query: Lab log: CCN1CCN(C(=O)COc2cc(=O)n(CC)c3ccccc23)CC1 — assign cell count category
result: band A

query: Item: CCCCCCn1c(O)c(C=NCCN2CCCCC2)c(=O)[nH]c1=O
result: band C

query: # repeat for CCCCSP1(=S)NCCCN1
result: band A

query: Lookup CN1CCC(N(C)c2ncnc3ccc(Br)cc23)CC1
result: band A

query: Here is the next compound: CC(C)C(=O)N1CCN(CCN=Cc2c(O)n(C)c(=O)n(C)c2=O)CC1
result: band B

query: Then this compound: COC(=O)C(O)(c1ccc(NC(=O)c2ccco2)c(OC)c1)C(F)(F)F (centres undefined)
result: band B

Where do these numbers come from? They come from PubChem BioAssay.
